# TEST SYSTEM: T1, CHIP (C-terminus of Hsc70 interacting protein; STUB1), recombinant human, full-length (human, UniProt Q9UNE7 1-303)
# T1 construct: CHIP (STUB1), human, E3 ubiquitin ligase; Used in ELISA, DSF and FP; the FP legends speak of the CHIP TPR domain, the FP methods only of CHIP; also called WT CHIP; source: E. coli BL21DE3, purified (Ni-NTA, TEV cleavage, SEC); not shown: His6, N-terminal, cleaved
# T1 sequence (looked up): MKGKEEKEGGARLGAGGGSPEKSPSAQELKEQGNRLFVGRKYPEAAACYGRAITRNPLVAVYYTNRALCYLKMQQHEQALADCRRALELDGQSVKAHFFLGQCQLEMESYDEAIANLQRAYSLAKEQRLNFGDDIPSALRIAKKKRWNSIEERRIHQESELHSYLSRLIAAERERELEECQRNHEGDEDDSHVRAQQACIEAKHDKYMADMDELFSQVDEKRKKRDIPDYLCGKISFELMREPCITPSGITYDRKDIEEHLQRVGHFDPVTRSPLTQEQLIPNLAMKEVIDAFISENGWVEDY
# METHOD SUMMARY: fluorescence polarisation; competition: CHIP 1.58 µM + fluorescent tracer 20 nM, peptide competitor in three-fold dilutions, 25 mM HEPES pH 7.4, 50 mM KCl, 0.01% Triton X-100, DMSO; Ki calculated from IC50
# EXPERIMENTAL CONTEXT: both partners purified
Non-standard residues stand in square brackets, D forms with d. pS = N[C@@H](COP(=O)(O)O)C(=O)O
ENDPOINT: pKi
Conceptually, pKi converts a concentration in mol/L into minus its log10.

[
  {
    "BINDER": "Ac-SSTGEIDMVD-OH (C-terminus of tauC3 with S416 replaced by glutamic acid; numbers count on: the 2N4R-tau splice isoform; also called tauC3 S416E peptide; pS416 phosphomimetic; source: synthetic peptide) [tauC3 S416E phosphomimetic 10-mer peptide Ac-SSTGEIDMVD-OH]",
    "OBSERVED RESULT": 5.62
  }
]

Dear colleague, I am looking for the recorded pKi of the following binder: Ac-SSTG[pS]IDMVD-OH (C-terminal 10-mer of tauC3 with a bona fide phosphoserine at the S416 position; numbers count on: the 2N4R-tau splice isoform; also called phosphorylated tauC3 peptide; source: synthetic peptide (Genscript)) [tauC3 pS416 10-mer peptide]
6.00

Dear colleague, I am looking for the recorded pKi of the following binder: Ac-SSTGSIDMVD-OH (C-terminus of tauC3 (tau ending at D421); numbers count on: the 2N4R-tau splice isoform; also called WT tauC3 peptide; WT tauC3; source: synthetic peptide) [tauC3 C-terminal 10-mer peptide Ac-SSTGSIDMVD-OH]
6.82

Cited source for all entries: paper PMC11393453
